- Protocol details: Cell viability (MTT) in the presence of LPS
- Assay type: cell-based, murine
- Condition details: mouse, RAW264.7 macrophage cells, dose 12.5 μg/mL, 100 ng/mL LPS, mean ± SD, read-out: Cell viability (% of control)
Property: viability at 24 h, 12.5 μg/mL (%)
Answer with a number only, understood to be in %.

Problem: Reported viability at 24 h, 12.5 μg/mL, molecule COc1c(C)c(-c2c(C)c(OC)c(O)c3c2OCO3)c2c(c1O)OCO2 [Compound 3] : ____
Result: 93

###

- System: LPS-induced NO production in RAW264.7 macrophages
- Protocol details: LPS-induced NO production in macrophages (nitrite, Griess reaction)
- Type: cell-based, murine
- Condition details: dose 0.312 μg/mL; LPS 100 ng/mL, 24 h; LPS alone 25.3 ± 3.0, control 2.5 ± 0.2
Form field: NO level (one value per entry).
Answer with a number only, understood to be in µM.

Consider the following illustrative entries.
C=C(C)c1c(OC)c(O)c(C)c2c1OCO2 [Compound 1]; 14.5
COc1cc(C)c(OC)c(O)c1OC [Compound 4, 2,3,6-trimethoxy-5-methylphenol]; 20.6

Problem: Reported NO level, compound COc1c(C)cc(O)c2c1OCO2 [Compound 5] : ____
Result: 15.2

Problem: Reported NO level, compound COc1c(C)cc(-c2c(O)c(C)c(OC)c3c2OCO3)c2c1OCO2 [Compound 2] : ____
Result: 16.4

###

- Protocol details: Cell viability (MTT) in the presence of LPS
- Format: cell-based, murine
- Condition details: mouse, RAW264.7 macrophage cells, dose 3.12 μg/mL, 100 ng/mL LPS, mean ± SD, read-out: Cell viability (% of control)
Property: viability at 24 h, 3.12 μg/mL (%)
Answer with a number only, understood to be in %.

Problem: Reported viability at 24 h, 3.12 μg/mL, molecule COc1c(C)c(-c2c(C)c(OC)c(O)c3c2OCO3)c2c(c1O)OCO2 [Compound 3] : ____
Result: 95.1

###

- Protocol details: Cell viability (MTT) in the presence of LPS
- Format: cell-based, murine
- Condition details: mouse, RAW264.7 macrophage cells, dose 50 μg/mL, 100 ng/mL LPS, mean ± SD, read-out: Cell viability (% of control)
- Procedure: A murine macrophage cell line, RAW264.7 (BCRC No. 60001), was purchased from the Bioresources Collection and Research Center (BCRC, Hsinchu, Taiwan) of the Food Industry Research and Development Institute (Hsinchu, Taiwan). […] Cells (2 × 10^5) were cultured in 96-well plate containing DMEM supplemented with 10% FBS for 1 day to become nearly confluent. […] After 30-min incubation, absorbance at 570 nm was read using a microplate reader (Molecular Devices, Sunnyvale, CA, USA).
Property: viability at 24 h, 50 μg/mL (%)
Answer with a number only, understood to be in %.

Problem: Reported viability at 24 h, 50 μg/mL, compound COc1c(C)c(-c2c(C)c(OC)c(O)c3c2OCO3)c2c(c1O)OCO2 [Compound 3] : ____
Result: 64.8

Problem: Reported viability at 24 h, 50 μg/mL, compound COc1ccc2c(c1)c(CC(=O)O)c(C)n2C(=O)c1ccc(Cl)cc1 [Indomethacin, indomethacin, reference compound] : ____
Result: 94.8

###

- Protocol details: Cell viability (MTT) in the presence of LPS
- Type: cell-based, murine
- Condition details: mouse, RAW264.7 macrophage cells, dose 1.25 μg/mL, 100 ng/mL LPS, mean ± SD, read-out: Cell viability (% of control)
Form field: viability at 24 h, 1.25 μg/mL (one value per entry).
Answer with a number only, understood to be in %.

COc1cc(C)c(OC)c(O)c1OC; 95

Problem: Reported viability at 24 h, 1.25 μg/mL, compound COc1c(C)cc(-c2c(O)c(C)c(OC)c3c2OCO3)c2c1OCO2 : ____
Result: 96.6

Problem: Reported viability at 24 h, 1.25 μg/mL, compound COc1c(C)cc(O)c2c1OCO2 : ____
Result: 85

Problem: Reported viability at 24 h, 1.25 μg/mL, compound C=C(C)c1c(OC)c(O)c(C)c2c1OCO2 : ____
Result: 90.4

###

Form field: viability at 24 h, 0.312 μg/mL (one value per entry).
- Protocol details: Cell viability (MTT) in the presence of LPS
- Assay type: cell-based, murine
- Condition details: mouse, RAW264.7 macrophage cells, dose 0.312 μg/mL, 100 ng/mL LPS, mean ± SD, read-out: Cell viability (% of control)
Express your answer as a number followed by its unit.

Consider the following illustrative entries.
COc1c(C)cc(O)c2c1OCO2; 93.8%
C=C(C)c1c(OC)c(O)c(C)c2c1OCO2; 92%
COc1c(C)cc(-c2c(O)c(C)c(OC)c3c2OCO3)c2c1OCO2; 98%

Problem: Reported viability at 24 h, 0.312 μg/mL, compound COc1cc(C)c(OC)c(O)c1OC : ____
Result: 97%

###

- Protocol details: Cell viability (MTT) in the presence of LPS
- Assay type: cell-based, murine
- Condition details: mouse, RAW264.7 macrophage cells, dose 0.625 μg/mL, 100 ng/mL LPS, mean ± SD, read-out: Cell viability (% of control)
Property: viability at 24 h, 0.625 μg/mL (%)
Answer with a number only, understood to be in %.

C=C(C)c1c(OC)c(O)c(C)c2c1OCO2; 91
COc1c(C)cc(O)c2c1OCO2; 88.5

Problem: Reported viability at 24 h, 0.625 μg/mL, molecule COc1cc(C)c(OC)c(O)c1OC : ____
Result: 96.2

Problem: Reported viability at 24 h, 0.625 μg/mL, molecule COc1c(C)cc(-c2c(O)c(C)c(OC)c3c2OCO3)c2c1OCO2 : ____
Result: 96.6

###

- Protocol details: Cell viability (MTT) in the presence of LPS
- Type: cell-based, murine
- Condition details: mouse, RAW264.7 macrophage cells, dose 5 μg/mL, 100 ng/mL LPS, mean ± SD, read-out: Cell viability (% of control)
Form field: viability at 24 h, 5 μg/mL (one value per entry).
Answer with a number only, understood to be in %.

Problem: Reported viability at 24 h, 5 μg/mL, molecule COc1c(C)cc(O)c2c1OCO2 [Compound 5] : ____
Result: 82.4

Problem: Reported viability at 24 h, 5 μg/mL, molecule COc1c(C)cc(-c2c(O)c(C)c(OC)c3c2OCO3)c2c1OCO2 [Compound 2] : ____
Result: 71.4

Problem: Reported viability at 24 h, 5 μg/mL, molecule COc1cc(C)c(OC)c(O)c1OC [Compound 4, 2,3,6-trimethoxy-5-methylphenol] : ____
Result: 69.3

Problem: Reported viability at 24 h, 5 μg/mL, molecule C=C(C)c1c(OC)c(O)c(C)c2c1OCO2 [Compound 1] : ____
Result: 65.5

###

- Protocol details: Cell viability (MTT) in the presence of LPS
- Type: cell-based, murine
- Condition details: mouse, RAW264.7 macrophage cells, dose 2.5 μg/mL, 100 ng/mL LPS, mean ± SD, read-out: Cell viability (% of control)
Form field: viability at 24 h, 2.5 μg/mL (one value per entry).
Answer with a number only, understood to be in %.

Problem: Reported viability at 24 h, 2.5 μg/mL, compound COc1cc(C)c(OC)c(O)c1OC [Compound 4, 2,3,6-trimethoxy-5-methylphenol] : ____
Result: 94.6

Problem: Reported viability at 24 h, 2.5 μg/mL, compound C=C(C)c1c(OC)c(O)c(C)c2c1OCO2 [Compound 1] : ____
Result: 87.3

Problem: Reported viability at 24 h, 2.5 μg/mL, compound COc1c(C)cc(-c2c(O)c(C)c(OC)c3c2OCO3)c2c1OCO2 [Compound 2] : ____
Result: 92.7

Problem: Reported viability at 24 h, 2.5 μg/mL, compound COc1c(C)cc(O)c2c1OCO2 [Compound 5] : ____
Result: 83.8

###

- Tested on: LPS-induced NO production in RAW264.7 macrophages
- Protocol details: LPS-induced NO production in macrophages (nitrite, Griess reaction)
- Format: cell-based, murine
- Condition details: dose 2.5 μg/mL; LPS 100 ng/mL, 24 h; LPS alone 25.3 ± 3.0, control 2.5 ± 0.2
Property: NO level
Express your answer as a number followed by its unit.

COc1cc(C)c(OC)c(O)c1OC; 13.6 ± 0.6 µM

Problem: Notebook: pull reported NO level for LPS-induced NO production in RAW264.7 macrophages, entry C=C(C)c1c(OC)c(O)c(C)c2c1OCO2
Result: 12.0 ± 1.7 µM

Problem: Notebook: pull reported NO level for LPS-induced NO production in RAW264.7 macrophages, entry COc1c(C)cc(-c2c(O)c(C)c(OC)c3c2OCO3)c2c1OCO2
Result: 15.5 ± 1.9 µM

Problem: Notebook: pull reported NO level for LPS-induced NO production in RAW264.7 macrophages, entry COc1c(C)cc(O)c2c1OCO2
Result: 10.4 ± 1.3 µM
